# System: SK-MEL-2 melanoma
# METHOD_DESCRIPTION: NCI tumour cell line growth inhibition, 48 h
VALUE_KIND: TGI

compound=CC1(C)[C@H](O)CC[C@]2(C)C3=CC[C@@]4(C)[C@@H]5C[C@](C)(CO)CC[C@]5(C)CC[C@]4(C)C3=CC[C@@H]12 result="> 100 µM"
compound=COc1cc(Cn2c3c(c4cc(O)ccc42)C(=O)c2ccccc2C3=O)cc(OC)c1 result="> 100 µM"
compound="O=C1OC(=O)C2C3CCC(O3)C12 (stereo not given)" result="> 100 µM"
compound=CNC(=O)N(CCC#N)CCN(CCN(C(=O)NC)c1ccccc1)C(=O)NC result="> 100 µM"
compound="CN1N=C(c2ccncc2)OC1c1ccc(Cl)c(Cl)c1 (stereo not given)" result="> 100 µM"
compound="CN(C)CC1(C)CC/C(=C\\c2ccc3c(c2)OCO3)C1=O (stereo not given)" result="> 100 µM"
compound=Nc1ccc(-c2ccc(-c3nc4ccccc4[nH]3)cc2)cc1 result="> 100 µM"
compound="COC(=O)C1CCc2c(OC)ccc(OC)c2C1=O (stereo not given)" result="> 100 µM"
compound=CC(=O)Oc1ccc(-c2cc3ccccc3oc2=O)cc1OC(C)=O result="> 100 µM"
compound=CN/N=C(\C)CC(=O)Nc1cccc(Cl)c1C result="> 100 µM"
